B1: BBSome complex member BBS2 (Homo sapiens), Q9BXC9 (parent)
chain: MLLPVFTLKLRHKISPRMVAIGRYDGTHPCLAAATQTGKVFIHNPHTRNQHVSASRVFQSPLESDVSLLSINQAVSCLTAGVLNPELGYDALLVGTQTNLLAYDVYNNSDLFYREVADGANAIVLGTLGDISSPLAIIGGNCALQGFNHEGSDLFWTVTGDNVNSLALCDFDGDGKKELLVGSEDFDIRVFKEDEIVAEMTETEIVTSLCPMYGSRFGYALSNGTVGVYDKTSRYWRIKSKNHAMSIHAFDLNSDGVNELITGWSNGKVDARSDRTGEVIFKDNFSSAIAGVVEGDYRMDGHIQLICCSVDGEIRGYLPGTAEMRGNLMDTSAEQDLIRELSQKKQNLLLELRNYEENAKAELASPLNEADGHRGIIPANTRLHTTLSVSLGNETQTAHTELRISTSNDTIIRAVLIFAEGIFTGESHVVHPSIHNLSSSICIPIVPPKDVPVDLHLKAFVGYRSSTQFHVFESTRQLPRFSMYALTSLDPASEPISYVNFTIAERAQRVVVWLGQNFLLPEDTHIQNAPFQVCFTSLRNGGHLHIKIKLSGEITINTDDIDLAGDIIQSMASFFAIEDLQVEADFPVYFEELRKVLVKVDEYHSVHQKLSADMADHSNLIRSLLVGAEDARLMRDMKTMKSRYMELYDLNRDLLNGYKIRCNNHTELLGNLKAVNQAIQRAGRLRVGKPKNQVITACRDAIRSNNINTLFKIMRVGTASS
partner: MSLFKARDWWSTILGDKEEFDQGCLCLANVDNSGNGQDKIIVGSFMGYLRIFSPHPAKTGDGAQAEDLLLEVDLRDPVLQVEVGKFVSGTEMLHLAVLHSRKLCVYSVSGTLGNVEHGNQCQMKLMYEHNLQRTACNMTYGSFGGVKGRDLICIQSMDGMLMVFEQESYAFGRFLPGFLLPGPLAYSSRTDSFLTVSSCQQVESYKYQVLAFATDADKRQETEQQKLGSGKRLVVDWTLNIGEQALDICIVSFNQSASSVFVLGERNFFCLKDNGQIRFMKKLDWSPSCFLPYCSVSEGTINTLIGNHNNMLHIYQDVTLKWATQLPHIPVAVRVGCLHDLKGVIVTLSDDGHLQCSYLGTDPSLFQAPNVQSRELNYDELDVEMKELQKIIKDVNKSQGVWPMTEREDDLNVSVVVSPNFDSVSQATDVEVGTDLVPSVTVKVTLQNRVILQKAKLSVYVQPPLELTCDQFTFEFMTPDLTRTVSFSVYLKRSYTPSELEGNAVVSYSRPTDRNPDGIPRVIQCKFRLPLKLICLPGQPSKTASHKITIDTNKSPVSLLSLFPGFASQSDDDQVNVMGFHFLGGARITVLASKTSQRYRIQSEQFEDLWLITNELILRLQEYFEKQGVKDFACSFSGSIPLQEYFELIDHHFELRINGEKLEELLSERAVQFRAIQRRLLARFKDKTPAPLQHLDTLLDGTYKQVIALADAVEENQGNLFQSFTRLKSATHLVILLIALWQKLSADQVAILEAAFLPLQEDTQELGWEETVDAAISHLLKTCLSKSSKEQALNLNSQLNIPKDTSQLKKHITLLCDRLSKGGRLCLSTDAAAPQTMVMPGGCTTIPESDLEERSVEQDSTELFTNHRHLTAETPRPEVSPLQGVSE

Variants of: B1
condition: with pthb1_human BBS9, Q3SYG4
measured metric: effect of a mutation on the interaction

changes=A564K measured="with no effect"
changes=E592K measured="with no effect"
changes=V415E measured="with no effect"
changes=F586A measured="with no effect"
changes=I577K measured="with no effect"
changes=P447A measured="with no effect"
changes=L350K measured="with no effect"
changes=S720A measured="with no effect"
changes=G375A measured="with no effect"
changes=Q581K measured="with no effect"
